Below: a set of entries, each annotated with reported AC50.
# TESTED_TARGET: human PAH with the R408W mutation (Homo sapiens, UniProt P00439, R408W)
# Construct: expressed in transfected cells
# Sequence (P00439 whole entry R408W): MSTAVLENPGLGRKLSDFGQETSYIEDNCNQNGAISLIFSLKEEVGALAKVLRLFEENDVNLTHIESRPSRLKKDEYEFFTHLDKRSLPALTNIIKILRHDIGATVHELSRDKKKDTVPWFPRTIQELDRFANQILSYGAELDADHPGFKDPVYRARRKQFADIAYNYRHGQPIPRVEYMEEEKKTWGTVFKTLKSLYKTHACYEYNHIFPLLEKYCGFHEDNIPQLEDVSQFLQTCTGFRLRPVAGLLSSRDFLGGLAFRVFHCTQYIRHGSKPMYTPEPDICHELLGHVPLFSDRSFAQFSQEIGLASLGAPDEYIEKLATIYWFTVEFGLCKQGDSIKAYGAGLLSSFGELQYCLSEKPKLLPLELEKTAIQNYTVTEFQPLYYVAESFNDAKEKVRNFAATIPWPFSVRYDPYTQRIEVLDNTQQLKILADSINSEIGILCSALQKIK
# METHOD_SUMMARY: Cell Based Phenylalanine Flux Assay
# CONDITION_NOTES: A375 cells expressing human R408W PAH; 24 hrs compound incubation; 13C-Tyrosine by LC-MS; average where tested multiple times; read-out: AC50

input: // query AC50 value for entry `CC(C)(C)c1ncc(C(=O)N2CCc3[nH]cnc3[C@H]2c2cc3ccccc3cn2)s1`
output: < 500 nM

input: Continue with `C[C@H]1CN(C(=O)c2oc(C(C)(C)O)nc2C2CC2)[C@H](c2cc3ccccc3cn2)c2nc[nH]c21`
output: < 500 nM

input: Continue with `O=C(c1nnc(-c2cnn(C3CCC3)c2)o1)N1CCc2[nH]cnc2[C@H]1c1cc2ccccc2cn1`
output: < 500 nM

input: Continue with `O=C(c1nnc(-c2ccn(C(F)F)n2)o1)N1CCc2[nH]cnc2[C@H]1c1ccc2ccccc2n1`
output: 500 to 1000 nM

Entry source: patent US20250262201A1
